Target: SpCas9 (Streptococcus pyogenes serotype M1)
Sequence (Q99ZW2 whole entry): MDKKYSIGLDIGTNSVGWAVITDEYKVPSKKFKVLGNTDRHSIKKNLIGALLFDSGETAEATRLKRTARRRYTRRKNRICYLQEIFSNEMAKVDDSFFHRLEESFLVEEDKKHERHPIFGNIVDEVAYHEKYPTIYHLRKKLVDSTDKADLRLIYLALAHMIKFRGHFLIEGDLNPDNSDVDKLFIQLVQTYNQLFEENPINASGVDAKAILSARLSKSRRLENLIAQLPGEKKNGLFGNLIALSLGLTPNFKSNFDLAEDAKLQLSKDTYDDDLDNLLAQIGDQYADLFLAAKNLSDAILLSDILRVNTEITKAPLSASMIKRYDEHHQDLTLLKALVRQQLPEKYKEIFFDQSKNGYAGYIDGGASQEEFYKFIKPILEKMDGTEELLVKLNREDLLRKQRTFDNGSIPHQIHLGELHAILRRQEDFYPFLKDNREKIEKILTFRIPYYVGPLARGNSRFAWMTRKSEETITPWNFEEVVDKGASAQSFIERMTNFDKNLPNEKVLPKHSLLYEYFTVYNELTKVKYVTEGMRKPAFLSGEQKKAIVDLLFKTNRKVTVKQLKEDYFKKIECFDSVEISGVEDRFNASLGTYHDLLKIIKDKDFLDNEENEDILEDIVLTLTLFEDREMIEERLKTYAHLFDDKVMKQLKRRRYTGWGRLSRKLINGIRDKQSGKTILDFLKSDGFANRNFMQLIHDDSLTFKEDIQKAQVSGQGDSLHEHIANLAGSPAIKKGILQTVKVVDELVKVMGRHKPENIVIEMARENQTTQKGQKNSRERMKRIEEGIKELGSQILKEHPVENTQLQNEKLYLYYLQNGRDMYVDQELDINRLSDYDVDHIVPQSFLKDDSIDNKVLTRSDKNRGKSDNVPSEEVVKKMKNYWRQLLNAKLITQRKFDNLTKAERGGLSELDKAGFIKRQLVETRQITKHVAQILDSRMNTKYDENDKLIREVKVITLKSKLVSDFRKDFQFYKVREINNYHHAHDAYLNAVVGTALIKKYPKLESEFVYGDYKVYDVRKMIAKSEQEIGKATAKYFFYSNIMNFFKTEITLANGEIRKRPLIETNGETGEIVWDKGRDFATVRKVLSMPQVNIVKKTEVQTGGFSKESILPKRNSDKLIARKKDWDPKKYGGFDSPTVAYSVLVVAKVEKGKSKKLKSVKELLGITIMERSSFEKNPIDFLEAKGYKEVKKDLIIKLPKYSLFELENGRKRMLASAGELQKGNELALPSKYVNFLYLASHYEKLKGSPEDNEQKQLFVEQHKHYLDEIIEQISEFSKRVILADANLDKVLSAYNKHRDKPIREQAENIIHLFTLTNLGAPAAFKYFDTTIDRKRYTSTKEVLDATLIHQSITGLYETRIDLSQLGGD
Assay: eGFP-disruption assay in U2OS.eGFP.PEST cells
Format: cell-based, S. pyogenes
Parameters: host or cells: U2OS.eGFP.PEST
Conditions: screen of structural analogs of BRD7087; 15 μM compound, 24 h, U2OS.eGFP.PEST cells
Method: SpCas9 nuclease activity in eGFP-disruption assay. […] Images were analyzed using MetaXpress software and data were plotted using GraphPad Prism 6. The Z′-value was calculated using the equation (1), where σ1 and σ2 are the standard deviations of DMSO control and SpCas9:gRNA control respectively. μ1 and μ2 are the mean % GFP^− cell population for DMSO control and SpCas9:gRNA control, respectively.
Endpoint: Average Inhibition activity

compound="COc1ccc(-c2ccc3c(c2)[C@H]2[C@H](CCN2C(=O)Cc2ccncc2)[C@H](CO)N3)cc1 [BRD-K17925790]" value=51.7
compound="OC[C@@H]1Nc2ccc(C#Cc3cccnc3)cc2[C@H]2NCC[C@@H]12 [BRD-K71200053]" value=67.6
compound="CCC(=O)N1CC[C@H]2[C@@H]1c1cc(C#Cc3ccccc3OC)ccc1N(C)[C@H]2CO [BRD-K31513357]" value=66.7
compound="COc1ccc(C#Cc2ccc3c(c2)[C@@H]2[C@@H](CCN2Cc2nccs2)[C@@H](CO)N3)cc1 [BRD-K70808105]" value=51.5
compound="CN(C)C(=O)c1cccc(-c2ccc3c(c2)[C@@H]2[C@@H](CCN2C(=O)c2ccc4c(c2)OCO4)[C@@H](CO)N3)c1 [BRD-K83829793]" value=53.1
compound="O=C(c1ccccc1)N1CC[C@@H]2[C@H]1c1cc(C#CC3CCCCC3)ccc1N[C@@H]2CO [BRD-K92041481]" value=68.3
compound="CN1c2ccc(-c3ccccc3F)cc2[C@@H]2[C@@H](CCN2C(=O)NC2CCCCC2)[C@H]1CO [BRD-K80765942]" value=50.0
compound="COc1ccc(S(=O)(=O)N2CC[C@H]3[C@@H](CO)N(C)c4ccc(C#Cc5ccccc5OC)cc4[C@H]32)cc1 [BRD-K83448282]" value=45.7
compound="COc1ccccc1NC(=O)N1CC[C@@H]2[C@H]1c1cc(C#Cc3cccc(F)c3)ccc1N(C)[C@@H]2CO [BRD-K77165899]" value=53.5
compound="O=S(=O)(c1cccc(F)c1)N1CC[C@H]2[C@H](CO)Nc3ccc(C#Cc4ccccc4F)cc3[C@H]21 [BRD-K67297693]" value=72.2
compound="O=C(C1CCCCC1)N1CC[C@@H]2[C@H](CO)Nc3ccc(C#Cc4ccc(F)cc4)cc3[C@@H]21 [BRD-K72901141]" value=49.5
compound="CN1c2ccc(-c3ccc(F)cc3)cc2[C@H]2[C@H](CCN2S(=O)(=O)c2cccc(F)c2)[C@@H]1CO [BRD-K98925777]" value=49.4
compound="O=C(C1CCCCC1)N1CC[C@@H]2[C@H]1c1cc(C#Cc3ccc(F)cc3)ccc1N[C@@H]2CO [BRD-K88933335]" value=45.7
compound="O=C(CC1CC1)N1CC[C@@H]2[C@H]1c1cc(-c3ccc(F)cc3)ccc1N[C@@H]2CO [BRD-K03427362]" value=49.4
compound="O=C(Cc1ccccc1)N1CC[C@@H]2[C@H](CO)Nc3ccc(-c4ccc(F)cc4)cc3[C@@H]21 [BRD-K05104277]" value=65.0
compound="CN1c2ccc(C#Cc3ccc(F)cc3)cc2[C@@H]2[C@@H](CCN2C(=O)CN2CCOCC2)[C@H]1CO [BRD-K82266131]" value=56.9
compound="CCCC#Cc1ccc2c(c1)[C@@H]1[C@@H](CCN1S(=O)(=O)c1ccccc1OC)[C@@H](CO)N2 [BRD-K43330291]" value=59.3
compound="Cc1ccc(S(=O)(=O)N2CC[C@@H]3[C@H](CO)Nc4ccc(-c5cccc(C(=O)N(C)C)c5)cc4[C@@H]32)cc1 [BRD-K51395794]" value=53.9
compound="COc1cccc(S(=O)(=O)N2CC[C@@H]3[C@H](CO)N(C)c4ccc(C#Cc5cccnc5)cc4[C@@H]32)c1 [BRD-K29966477]" value=57.5
